Ref: patent US12263163B2

- Test system: human hepatocytes
- protocolDescription: Human Hepatocyte Stability Assay (predicted hepatocyte clearance)
- Format: in vitro ADME
- experimentalParameters: comparison table with known Syk inhibitors, head prints (units)
assayReadout: Hheps CL (mL/min/kg)

compound: Nc1cncc(-c2cn3ccnc3c(Nc3ccc(N4CCO[C@@H](CO)C4)cc3)n2)n1
Hheps CL (mL/min/kg): 1.5

[A] Cc1c(-c2cncc(N)n2)nc(Nc2ccc(N3CCN(C4COC4)CC3)cc2)c2nccn12
[B] COc1ccc(Nc2nc(-c3cccc(N)c3)cn3ccnc23)cc1OC [reference compound]
# input Lab note: record which item had the higher Hheps CL, A or B . Could you answer with the label of the item you picked?
# output B
(B: 4 mL/min/kg, A: 1.3 mL/min/kg)

----------
- Tested on: human hepatocytes
- protocolDescription: Human Hepatocyte Stability Assay (predicted hepatocyte clearance)
- Format: in vitro ADME
- experimentalParameters: comparison table with known Syk inhibitors, head prints (units)
assayReadout: Hheps CL (L/h/kg)

[1] Cc1ncc(-c2cn3ccnc3c(Nc3ccc(N4CCOCC4)cc3)n2)cc1N [reference compound]
[2] Cc1ncc(-c2cn3ccnc3c(Nc3ccc(N4CCN(C5COC5)CC4)cc3)n2)nc1N
# input Lower Hheps CL: 1 or 2 ? Could you answer with the label of the item you picked?
# output 2
(2: 0.12 L/h/kg, 1: 0.80 L/h/kg)

----------
- System: human hepatocytes
- protocolDescription: Human Hepatocyte Stability Assay (predicted hepatocyte clearance)
- Format: in vitro ADME
- experimentalParameters: comparison table with known Syk inhibitors, head prints (units)
assayReadout: Hheps CL (mL/min/kg)

Observe how each entry below is paired with its result.
compound: Nc1cncc(-c2cn3ccnc3c(Nc3ccc(N4CCOCC4)cc3)n2)c1 [reference compound]
assayReadout: Hheps CL
value: 11.3
--
compound: Nc1cncc(-c2cn3ccnc3c(Nc3ccc(N4CCN(C5COC5)CC4)cc3)n2)n1
assayReadout: Hheps CL
value: 0.917

[A] COc1ccc(Nc2nc(-c3ccc(N)nc3)cn3ccnc23)cc1OC [reference compound]
[B] Cc1ncc(-c2cn3ccnc3c(Nc3ccc(N4CCN(C5COC5)CC4)c(OCCO)c3)n2)nc1N
[C] Nc1cncc(-c2cn3ccnc3c(Nc3ccc(N4CCN(CC(CO)CO)CC4)cc3)n2)n1
# input In this exercise, place the 3 compounds in ascending sequence of their recorded Hheps CL. Sort and list the labels as requested.
# output B, C, A
(B: 0.83 mL/min/kg, C: 1.3 mL/min/kg, A: 15 mL/min/kg)
